Kindly supply the reported growth inhibition values for the records listed here.
Experiment: NCI Yeast Anticancer Drug Screen. Data for the cln2 rad14 strain (AID 165);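 also: 0% = growth equal to vehicle treated cultures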
Details: S. cerevisiae cln2 rad14 strain, at 50.0 µM, hits give high values
This is part of a sample that, as a whole, favours compounds with a hit. Of some 79,000 tested, about 15% had one in any assay. Where a SMILES comes first, the peptide text is derived from it. [ ]: non-standard residue; d: D form. The star is where a group is joined. ξ: configuration not given here. dThr(3ξ) = CC(O)[C@@H](N)C(=O)O; dNMeL = CN[C@H](CC(C)C)C(=O)O; OBn = c1ccc(CO*)cc1; ξLac = CC(O)C(=O)O
// return numeric value only (unit: %, not printed)

Asked: Any idea what its growth inhibition is? The compound is `Cc1ccc(C)c2c3c(sc12)CCCC3`
Given back: -17.2

Asked: And the next one, `COc1cc(CC/C(C)=N/O)ccc1OCc1ccccc1` ?
Given back: -39.6

Asked: And the next one, `COc1ccc2c(c1)OC(C)(C)C(c1ccccc1)=C2c1ccc(OCCN2CCCC2)cc1` ?
Given back: 99.3

Asked: And the next one, `Cc1ncc(CO)c(/C=N/NC(N)=S)c1O` ?
Given back: -34.9

Asked: And the next one, CCCCCCCCCC[N+](C)(C)CC(O)CO (centres undefined) ?
Given back: 9.45

Asked: And the next one, `COc1ccc2ccc3ccc(OC)nc3c2n1` ?
Given back: -7.05

Asked: And the next one, `CSc1n[n+](-c2ccccc2)cs1` ?
Given back: 6.9

Asked: And the next one, `NC(=O)c1cccnc1` ?
Given back: -27.2

Asked: And the next one, C=C1CCCC2OC(OC)CCC12 (centres undefined) ?
Given back: 0.75

Asked: And the next one, `O=c1c(CN(CCO)CCO)c(-c2ccccc2)sc2ccccc12` ?
Given back: 13.1

Asked: And the next one, `O=[N+]([O-])c1ccc(/C=C/c2cc(-c3ccccc3)nc3ccc4ccccc4c23)cc1` ?
Given back: 3.2

Asked: And the next one, CCSC(SCC)C(SCC)C(OC(=O)c1ccccc1)C(OC(=O)c1ccccc1)C(COC(=O)c1ccccc1)OC(=O)c1ccccc1 (centres undefined) ?
Given back: -5.3

Asked: And the next one, `O=Cc1ccc(F)cc1[N+](=O)[O-]` ?
Given back: 1.1

Asked: And the next one, COC(=O)N[C@H](C(=O)O)C(C)O[Si](C)(C)C(C)(C)C (some centres undefined) ?
Given back: 8.2

Asked: And the next one, CC(=O)OC(C)[C@@H](NC(=O)[C@@H](CC(C)C)N(C)C(=O)[C@@H]1CCCN1C(=O)C(C)O)C(=O)OCc1ccccc1 (some centres undefined) (H-[ξLac]P[dNMeL][dThr(3ξ)](Ac)-OBn) ?
Given back: 8.2

Asked: And the next one, `CCN(S(C)(=O)=O)S(C)(=O)=O` ?
Given back: -37

Asked: And the next one, `O=C(CCCn1ccnc1[N+](=O)[O-])NCCn1ccnc1[N+](=O)[O-]` ?
Given back: 17.4

Asked: And the next one, `O=P(O)(O)c1ccc(Oc2ccccc2)cc1` ?
Given back: -22.2

Asked: And the next one, `O=S1(=O)OCCOS(=O)(=O)C1F` ?
Given back: -23.2

Asked: And the next one, O=C(CCC1CCCCC1=O)c1ccc(Br)cc1 (centres undefined) ?
Given back: -6.95

Asked: And the next one, `COc1ccc(-c2nc3ccccc3[nH]2)cc1` ?
Given back: -4

Asked: And the next one, O=C1C(C2CCCCC2)=C2OCC3COC2(O3)c2ccccc21 (centres undefined) ?
Given back: -10.1

Asked: And the next one, CC(=O)c1cccc(NC(=O)OCC2CC3C=CC2C3)c1 (centres undefined) ?
Given back: 4

Asked: And the next one, `Cc1cc(=O)[nH]n1-c1ccc([N+](=O)[O-])cc1` ?
Given back: -9.8

###

Assay: NCI Yeast Anticancer Drug Screen. Data for the mlh1 rad18 strain (AID 175)
Settings: S. cerevisiae mlh1 rad18 strain growth inhibition; at 50.0 µM; hits give high values
Protocol: Growth inhibition of yeast strains with defined genetic alterations is measured as a screen for potential anti-cancer activity. Selected strains with alterations in DNA damage repair or cell cycle control were exposed to compounds and growth inhibition was measured relative to vehicle treated controls. The strain used in this assay is mlh1 rad18
About 79,000 compounds went through this panel and 15% of them were active in at least one assay; those are over-represented in the sample as a whole.
Respond with 1 for growth inhibition values of -10% and above, -1 for values below.

Asked: Quick check: does `Cc1cccc(Cl)c1NC(=O)COc1ccc(Cl)cc1` have growth inhibition greater than or equal to -10%?
Given back: 1

Asked: And the next one, `C(/C=N/NC1=NCCCCN1)=N\NC1=NCCCCN1` ?
Given back: -1

Asked: And the next one, `CC(=O)Nc1ccc(/C=C/c2csnn2)cc1` ?
Given back: 1

Asked: And the next one, COc1ccc(-c2c(C(C)=O)c(-c3ccccc3)n(C3OC(CO)C(O)C(O)C3O)c(=S)c2C#N)cc1 (stereo unspecified) ?
Given back: 1

Asked: And the next one, `c1cncc(Cc2nc3ccccc3[nH]2)c1` ?
Given back: -1

Asked: And the next one, `Cc1cc(C)n(-c2nc(-n3nc(C)cc3C)nc(-n3nc(C)cc3C)n2)n1` ?
Given back: -1

###

Experiment: NCI Yeast Anticancer Drug Screen. Data for the sgs1 mgt1 strain (AID 161);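 also: 0% = growth of cultures given vehicle only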
Settings: S. cerevisiae sgs1 mgt1 strain, at 50.0 µM, hits give high values
Compounds without any hit were thinned out: in the full panel of roughly 79,000, 15% have a hit.
Measurement Type: growth inhibition (%)
// return numeric value only (unit: %, not printed)

Asked: Any idea what its growth inhibition is? The compound is COc1ccc(C(=O)C(CO)Oc2ccccc2OC)cc1OC (configuration not stated)
Given back: -20.2

Asked: And the next one, CC1=NNC(c2ccco2)C1 (configuration not stated) ?
Given back: 12.8

Asked: And the next one, CC1(O)Oc2c(cc(C(C)(C)C)cc2C(C)(C)C)C1=O (configuration not stated) ?
Given back: 18.2

Asked: And the next one, `COC(=O)c1nnn(-c2cc(Cl)ccc2Cl)c1C(=O)c1ccc(OC)cc1` ?
Given back: -12.7

Asked: And the next one, `O=C1NNC=Nc2ccc(cc2)S(=O)(=O)c2ccc(cc2)N=CNNC1=O` ?
Given back: -20.1

Asked: And the next one, `CCN(C=O)c1ccccc1` ?
Given back: -6.95

Asked: And the next one, `COC(=O)/C(C#N)=C(/NCCN)Nc1ccccc1` ?
Given back: -39

Asked: And the next one, `COc1cc(OC)c(NC(=O)ON2C(=O)c3ccccc3C2=O)cc1Cl` ?
Given back: -2.3

Asked: And the next one, `COc1cc2c[n+](C)c(-c3ccc(Cl)c(Cl)c3)c(OC)c2cc1OC` ?
Given back: 41.5

Asked: And the next one, `C=C1C(=O)O[C@@H]2[C@@H]3[C@@H](C)C(=O)C=C[C@]3(C)CC[C@@H]12` ?
Given back: -11.2

Asked: And the next one, `S=C=NC12CC3CC(CC(C3)C1)C2` ?
Given back: 0.65

Asked: And the next one, `COc1cc([N+](=O)[O-])c(F)cc1F` ?
Given back: -0.05

###

Experiment: NCI Yeast Anticancer Drug Screen. Data for the mec2-1 strain (AID 157)
Details: S. cerevisiae mec2-1 strain, at 50.0 µM
The panel holds about 79,000 compounds, 15% with a hit somewhere; the sample as a whole holds those more often. Activity calls are given as the source filed them. Rule as the data show it: active = growth inhibition above about 70%; inactive = the rest.
The reply should be one of these categories: true (1) = active, false (0) = inactive

Asked: Outcome? `CCCOC(=O)CCCCCC1CCCCC1`
Given back: false (0)

Asked: And the next one, `C[Si](C)(CCCOC(N)=O)COC(N)=O` ?
Given back: false (0)

Asked: And the next one, `O=S(=O)(c1ccccc1)N1CCCCN(S(=O)(=O)c2ccccc2)COC1` ?
Given back: false (0)

Asked: And the next one, `CC(C)OC(=O)C(=O)Nc1cccc(Cl)c1` ?
Given back: false (0)

Asked: And the next one, `O=C(NNC1=NCCN1)c1ccco1` ?
Given back: false (0)

Asked: And the next one, `CCCCC(C(=O)OCC)C(=O)OCC` ?
Given back: false (0)

Asked: And the next one, `CCCCCn1c(=O)c2c(=O)[nH][nH]c2c2ccccc21` ?
Given back: false (0)

Asked: And the next one, `CN(C)CC(CN(C)C)C(=O)C(C)(C)C` ?
Given back: false (0)

Asked: And the next one, `Nc1c(F)c(F)c(C(=O)O)c(F)c1F` ?
Given back: false (0)

Asked: And the next one, `Cc1nc(N)nc(C)c1N=Nc1ccc(Cl)cc1Cl` ?
Given back: false (0)

Asked: And the next one, `CC(C)=CC(=O)N1CCN(C(=O)C=C(C)C)CC1` ?
Given back: false (0)

Asked: And the next one, `CC1(C)OC(=O)C(=Cc2ccc(O)cc2)C(=O)O1` ?
Given back: false (0)

Asked: And the next one, `CSc1ccc(NC(=O)COc2ccccc2)cc1` ?
Given back: false (0)

Asked: And the next one, `Cn1ccc(=S)c2ccccc21` ?
Given back: false (0)

Asked: And the next one, `CC(C)(C)c1cc(/C=N/NC(=S)Nc2ccccc2)cc(C(C)(C)C)c1O` ?
Given back: false (0)

Asked: And the next one, `COc1ccc(C2=CSc3ccccc3N2)cc1` ?
Given back: false (0)

Asked: And the next one, CCN(CC)CCCC(C)Nc1c2ccccc2nc2cc(Cl)cc(Cl)c12 (configuration not stated) ?
Given back: false (0)

Asked: And the next one, `Nc1ccc2ccc3ccccc3c2c1` ?
Given back: false (0)

Asked: And the next one, CC(=O)NCC1OC2COC(c3ccccc3)OC2C2N=C(c3ccccc3)OC12 (configuration not stated) ?
Given back: false (0)

Asked: And the next one, `Nc1nc(N)c(-c2ccccc2)c(CCC(=O)Nc2ccc(Cl)cc2)n1` ?
Given back: false (0)

Asked: And the next one, `Brc1ccc(-c2cc(-c3ccc4c(c3)OCO4)c(-c3cccs3)n2Cc2ccccc2)cc1` ?
Given back: false (0)

Asked: And the next one, `CN(C)CC(C)(C)CO` ?
Given back: false (0)

Asked: And the next one, `COc1ccccc1Br` ?
Given back: false (0)

Asked: And the next one, `C(=C1\COC(c2ccccc2)=N1)/c1ccc2c(c1)OCO2` ?
Given back: false (0)

Asked: And the next one, N#CC(NCc1ccccc1)c1ccccc1 (configuration not stated) ?
Given back: false (0)

Asked: And the next one, `O=C1CSC(=S)N1/N=C/c1ccc([N+](=O)[O-])s1` ?
Given back: true (1)

Asked: And the next one, `O=NNc1ccnc(-c2cc(NN=O)ccn2)c1` ?
Given back: false (0)
